Just for reference, paper PMC3961306 is where these values come from.

- targetSystem: panel of more than 300 wild-type and mutant kinases (313 kinase panel) (Homo sapiens, UniProt Q9H2G2)
- protocolDescription: Kinase profiling in a biochemical assay panel (mobility shift assays and ELISA), %-inhibition at 1 μM; selectivity entropy
- protocolConditions: kinase SLK; 1 μM
readout: %-inhibition of SLK
Answer with the value and then the unit.

entrySmiles	readout	result
Cc1ccc(Nc2nccc(N(C)c3ccc4c(C)n(C)nc4c3)n2)cc1S(N)(=O)=O	%-inhibition of SLK	28%
N#CC[C@H](C1CCCC1)n1cc(-c2ncnc3[nH]ccc23)cn1	%-inhibition of SLK	7%
CC(C)(C)c1nc(-c2cccc(NS(=O)(=O)c3c(F)cccc3F)c2F)c(-c2ccnc(N)n2)s1	%-inhibition of SLK	12%
CO[C@H]1C[C@@H]2CC[C@@H](C)[C@@](O)(O2)C(=O)C(=O)N2CCCC[C@H]2C(=O)O[C@H]([C@H](C)C[C@@H]2CC[C@@H](OCCO)[C@H](OC)C2)CC(=O)[C@H](C)/C=C(\C)[C@@H](O)[C@@H](OC)C(=O)[C@H](C)C[C@H](C)/C=C/C=C/C=C/1C	%-inhibition of SLK	-2.67%
CCCS(=O)(=O)Nc1ccc(F)c(C(=O)c2c[nH]c3ncc(-c4ccc(Cl)cc4)cc23)c1F	%-inhibition of SLK	43%

Consider now this further compound.
Supply %-inhibition of SLK value. Item: CC(=O)Nc1cccc(-n2c(=O)n(C3CC3)c(=O)c3c(Nc4ccc(I)cc4F)n(C)c(=O)c(C)c32)c1 -2.6%
